- TARGET_OF_ASSAY: Macrophage migration inhibitory factor (Homo sapiens, UniProt P14174)
- Sequence (P14174 whole entry): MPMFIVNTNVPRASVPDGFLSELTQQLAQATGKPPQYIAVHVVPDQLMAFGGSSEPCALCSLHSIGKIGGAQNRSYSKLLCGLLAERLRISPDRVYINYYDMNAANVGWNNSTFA
- ASSAY_NAME: Binding affinity to BTZO-12 sensor chip immobilized human MIF expressed in Escherichia coli BL21 (DE3) by SPR analysis
pKd: −log10 of the molar value.
ENDPOINT: pKd

INSERT INTO assay_data (chemical_string, endpoint, numeric_value) VALUES
  ('O=c1nc(-c2ccccn2)sc2ccccc12', 'pKd', 7.06);

====

- Tested on: Cardiac muscle cell
- ASSAY_NAME: Cytoprotective activity against serum deprivation-induced neonatal Wistar rat cardiomyocyte death assessed as increase in cell viability measured after 4 days by WST-8 assay
- Format: functional
- EXPERIMENTAL_CONDITIONS: time 4 day
This listing pairs molecules with measured MEC1.5.
ENDPOINT: MEC1.5 (nM)

INSERT INTO measurements (molecule, target_of_assay, comparator, numeric_value) VALUES
  ('O=C(O)CCOCCCc1ccc(-c2nc(=O)c3ccccc3s2)nc1', 'Cardiac muscle cell', '=', 39),
  ('O=C(O)CCOCCCc1cccc(-c2nc(=O)c3cccnc3s2)n1', 'Cardiac muscle cell', '>', 1000),
  ('Cc1cccc2c(=O)nc(-c3ccccn3)sc12', 'Cardiac muscle cell', '>', 1000),
  ('O=C(O)CCOCCCc1cccc(-c2nc(=O)c3ccccc3s2)n1', 'Cardiac muscle cell', '=', 53),
  ('O=C1NC(c2ccccn2)Sc2ccccc21 (stereo not drawn) [BTZO-4]', 'Cardiac muscle cell', '>', 1000),
  ('O=C(O)CCc1cccc(-c2nc(=O)c3ccccc3s2)n1', 'Cardiac muscle cell', '=', 39),
  ('Cc1cc(C)c2sc(-c3cccc(CCCOCCC(=O)O)n3)nc(=O)c2c1', 'Cardiac muscle cell', '>', 1000),
  ('O=c1nc(-c2ccccn2)sc2ncccc12', 'Cardiac muscle cell', '>', 1000),
  ('Cc1cc(C)c2sc(-c3ccccn3)nc(=O)c2c1', 'Cardiac muscle cell', '>', 1000),
  ('O=c1nc(-c2ccccn2)sc2ccccc12 [BTZO-1]', 'Cardiac muscle cell', '=', 16),
  ('O=c1nc(-c2cccnc2)sc2ccccc12', 'Cardiac muscle cell', '=', 39),
  ('Cc1c(C)c2c(c(C)c1O)CCC(C)(C(=O)O)O2 (stereo not drawn) [TROLOX]', 'Cardiac muscle cell', '=', 160000),
  ('O=C(O)CCOCCCc1cccc(C2NC(=O)c3ccccc3S2)n1 (stereo not drawn)', 'Cardiac muscle cell', '>', 1000);

====

- TARGET_OF_ASSAY: Macrophage migration inhibitory factor (Rattus norvegicus)
- Sequence (P30904 2-115 limits assumed): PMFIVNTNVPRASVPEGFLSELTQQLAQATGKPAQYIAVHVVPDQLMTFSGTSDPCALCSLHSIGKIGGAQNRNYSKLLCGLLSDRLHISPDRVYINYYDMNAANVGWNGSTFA
- ASSAY_NAME: Inhibition of recombinant rat MIF expressed in Escherichia coli BL21 (DE3) assessed as reduction in tautomerase activity using L-dopachrome carboxy-methyl ester as substrate by spectrophotometry
pIC50: −log10 of the molar value.
ENDPOINT: pIC50

INSERT INTO measurements (compound, endpoint, comparator, numeric_value) VALUES
  ('CC(C)(C)c1cc(O)ccc1O', 'pIC50', '<', 4.52),
  ('C[S@@+]([O-])CCCCN=C=S', 'pIC50', '=', 5.36),
  ('CCCCC/C=C/C=C1/C(=O)C=C[C@@H]1C/C=C\CCCC(=O)O', 'pIC50', '=', 5.43),
  ('COC(=O)CC1CC(c2ccc(O)cc2)=NO1 (stereo not given)', 'pIC50', '=', 4.17),
  ('O=c1nc(-c2ccccn2)sc2ccccc12', 'pIC50', '<', 4.52);
